Biological target: PCP receptor
Assay: [3H]TCP radioreceptor assay (binding to PCP recognition sites)
Parameters: species or system rat (male Sprague-Dawley, whole brain)
Settings: [3H]TCP approx. 1 nM, rat brain membranes; mean of at least two determinations
Quick reference for Ki among some molecules
Kindly provide the numeric value in nM only, without the unit symbol.

Examples with answers:
1. Fc1ccc[n+]2c1C1c3ccccc3C2CC1(c1ccoc1)c1ccoc1.[O-][Cl+3]([O-])([O-])[O-] (centres unmarked)    13.8
2. CC12CC(c3ccccc3)(c3ccccc3)C(c3ccccc31)c1cccc[n+]12 (single isomer, unassigned) [20(h), hydrate]    7.15
3. Fc1cc(F)c2c(c1)C1CC(c3ccccc3)(c3ccccc3)C2c2cccc[n+]21 (centres unmarked) [33(c), hydrate]    1140
4. c1ccc2c(c1)C1C3CCc4occc4C3(c3ccoc3)C2c2cccc[n+]21 (centres unmarked) [7(b)]    1.38
5. CC(=O)Oc1ccc[n+]2c1C1c3ccccc3C2CC1(c1ccoc1)c1ccoc1 (centres unmarked)    232
6. Oc1cccc(C2(c3cccc(O)c3)CC3c4ccccc4C2c2cccc[n+]23)c1.[O-][Cl+3]([O-])([O-])[O-] (centres unmarked)    13.8

Record summary for COc1cccc2c1CC1C3c4ccccc4C(c4cccc[n+]43)C21c1ccccc1 (centres unmarked) [4(E)] : reported Ki = 5870

Record summary for COc1cccc2c1C1c3cccc[n+]3C2(C)CC1(c1ccccc1)c1ccccc1 (centres unmarked) [37(E)] : reported Ki = 36.7

Recorded Ki (molecule CC12CC(c3ccccc3)(c3ccccc3)C(c3ccccc31)c1cccc[n+]12 (centres unmarked) [19(b)] ): 6.8

Entry c1ccc2c(c1)C1CC(c3ncc[nH]3)(c3ncc[nH]3)C2c2cccc[n+]21 (centres unmarked) [173(e)] , Ki reported as 1670

# Ki (molecule: [O-][Cl+3]([O-])([O-])[O-].c1ccc2c(c1)C1CC(c3cncs3)(c3cncs3)C2c2cccc[n+]21 (centres unmarked) ) is 120

What the record says about [O-][Cl+3]([O-])([O-])[O-].c1ccc(C2(c3ccccc3)CC3c4ccccc4C2c2cccc[n+]23)cc1 (centres unmarked) : Ki is 6.07

The recorded Ki for COc1ncccc1C1(c2cccnc2OC)CC2c3ccccc3C1c1cccc[n+]12.[O-][Cl+3]([O-])([O-])[O-] (centres unmarked) is 453

Ki in this record for COc1cccc(C23c4ccccc4CC2C2c4ccccc4C3c3cccc[n+]32)c1 (centres unmarked) [5(c)] : 13.3

For reference, reported Ki for CCOC1(c2cc(C)oc2C)CC2c3ccccc3C1c1cccc[n+]12 (centres unmarked) stands at 253

For this molecule ( c1ccc2c(c1)C1C3CCc4occc4C3(c3cc4ccccc4o3)C2c2cccc[n+]21 (centres unmarked) [10(c-G)] ), measured Ki is 4450

Oc1ccc2c(c1)C1c3cccc[n+]3C2CC1(c1ccccc1)c1ccccc1 (centres unmarked) yielded Ki of 21.9

----------
Target: PCP receptor
Test: [3H]TCP radioreceptor assay (binding to PCP recognition sites)
Design: species or system rat (male Sprague-Dawley, whole brain)
Conditions: [3H]TCP approx. 1 nM, rat brain membranes; mean of at least two determinations
VALUE TYPE: pKi
Note on pKi: it is the negative log10 of concentration, concentration in mol/L.

Solved cases (3 shown):
1) CC12CC(c3ccccc3)(c3ccccc3)C(c3c(O)cccc31)c1cccc[n+]12 (stereo not shown)    7.78
2) CCOC(=O)CC(C)(C)C(=O)Oc1cccc2c1C1c3cccc[n+]3C2CC1(c1ccoc1)c1ccoc1 (stereo not shown)    5.84
3) Oc1c(Cl)ccc2c1C1c3cccc[n+]3C2CC1(c1ccoc1)c1ccoc1 (stereo not shown)    7.63

Now, please, on to the next molecule.
// recorded pKi for Fc1ccc(C2(c3ccc(F)cc3)CC3c4ccccc4C2c2cccc[n+]23)cc1 (stereo not shown) : 5.66

----------
Molecular target: PCP receptor
Test: [3H]TCP radioreceptor assay (binding to PCP recognition sites)
Design: species or system rat (male Sprague-Dawley, whole brain)
Conditions: [3H]TCP approx. 1 nM, rat brain membranes; mean of at least two determinations
Each entry falls into one class according to its Ki; the ranges are Low: < 8 nM; Mid: ≥ 8 nM and < 80 nM; High: ≥ 80 nM

**Query** Hi there! Could you help me figure out the category for CCOC12c3ccoc3CCC1C1c3ccccc3C2c2cccc[n+]21 (stereo not drawn) please?
**Result** Low

**Query** Lab log: O=[N+]([O-])c1cccc2c1C1c3cccc[n+]3C2CC1(c1ccoc1)c1ccoc1.[O-][Cl+3]([O-])([O-])[O-] (single isomer, unassigned) — assign Ki category
**Result** Mid

**Query** Class label required: CCCCCCCC(=O)Oc1cccc2c1C1c3cccc[n+]3C2CC1(c1ccoc1)c1ccoc1 (stereo not drawn)
**Result** Mid

**Query** Sort into band: COc1ccc2c(c1)C1c3cccc[n+]3C2CC1(c1ccccc1)c1ccccc1 (stereo not drawn) [27(E), hydrate]
**Result** Mid

**Query** Quick check: band for c1ccc2c(c1)CC1C3c4ccccc4C(c4cccc[n+]43)C21c1ccoc1 (stereo not drawn) [6(c)]
**Result** Low

**Query** Please indicate the class for CCOC1(c2ccoc2)CC2(C)c3ccccc3C1c1cccc[n+]12 (stereo not drawn) based on its Ki.
**Result** Mid

**Query** Which bin, given its Ki, does C#CC1(c2ccccc2)CC2c3ccccc3C1c1cccc[n+]12 (single isomer, unassigned) occupy?
**Result** Mid

**Query** Category of c1ccc(C2(c3ccccn3)CC3c4ccccc4C2c2cccc[n+]23)nc1 (stereo not drawn) [24(b), hydrate] , please.
**Result** Mid

**Query** Looking at c1cc[n+]2c(c1)C1c3c(ccc4c3OCO4)C2CC1(c1ccoc1)c1ccoc1 (stereo not drawn) , which class would you pick?
**Result** Low

**Query** Kindly state the category for this molecule: COC(=O)C12CC(c3ccoc3)(c3ccoc3)C(c3ccccc31)c1cccc[n+]12 (stereo not drawn)
**Result** Mid

**Query** Lab log: Cc1cc[n+]2c(c1)C1c3ccccc3C2CC1(c1ccccc1)c1ccccc1.[O-][Cl+3]([O-])([O-])[O-] (stereo not drawn) [54(E)] — assign Ki category
**Result** Mid

**Query** Band assignment needed for Cc1noc2c1CCC1C3c4ccccc4C(c4cccc[n+]43)C21c1ccoc1 (stereo not drawn) please.
**Result** High

**Query** Quick check: band for c1ccc2c(c1)C1CC(c3cc[nH]c3)(c3cc[nH]c3)C2c2cccc[n+]21 (stereo not drawn)
**Result** Low

**Query** Class for c1coc(C2(c3ccco3)CC3c4ccccc4C2c2cccc[n+]23)c1 (stereo not drawn) ?
**Result** Low

----------
Items are presented alongside their recorded pKi.
Target: PCP receptor
Assay: [3H]TCP radioreceptor assay (binding to PCP recognition sites)
Set-up: species or system rat (male Sprague-Dawley, whole brain)
Conditions: [3H]TCP approx. 1 nM, rat brain membranes; mean of at least two determinations
Lab note — pKi values are minus log10 of concentrations in M.

1. c1ccc2c(c1)CC1C2C2c3ccccc3C1[n+]1ccccc12 (single isomer, unassigned) [Example 2(a)]    6.91
2. COc1cccc(C2(c3cccc(OC)c3)CC3c4ccccc4C2c2cccc[n+]23)c1 (stereo not shown)    7.39
3. C=C1C2c3ccccc3C(c3cccc[n+]32)C1(c1ccoc1)c1ccoc1 (stereo not shown)    8.64

Field: next compound
The measured pKi associated with COc1cccc(C23c4ccccc4CC2C2c4ccccc4C3c3cccc[n+]32)c1 (single isomer, unassigned) [5(d)] reads 7.66

----------
Biological target: PCP receptor
Assay: [3H]TCP radioreceptor assay (binding to PCP recognition sites)
Parameters: species or system rat (male Sprague-Dawley, whole brain)
Details: [3H]TCP approx. 1 nM, rat brain membranes; mean of at least two determinations; hydrate
VALUE TYPE: Ki (nM)
Numeric answer only, unit nM assumed.

Consider CC12CC(c3ccccc3)(c3ccccc3)C(c3ccccc31)c1cccc[n+]12 (stereo not shown) [Example 21, hydrate] . Its measured Ki is 13

----------
pKi values, listed per item
Target: PCP receptor
Assay: [3H]TCP radioreceptor assay (binding to PCP recognition sites)
Set-up: species or system rat (male Sprague-Dawley, whole brain)
Details: [3H]TCP approx. 1 nM, rat brain membranes; mean of at least two determinations
Method: [^3 H]TCP Radioreceptor Assay [^3 H]TCP binding to PCP recognition sites was performed as described by Vignon et al. Brain Research 1983, 280, 194-197. Male Sprague-Dawley rats were sacrificed by decapitation, and whole brains were homogenized in 10 volumes (wt/vol) of cold Tris-HCl buffer (50 mM, pH 7.7) using a Brinkmann Polytron (setting 6, 30 sec). The homogenate was centrifuged at 40,000×g for 10 min at 4° C. […]
The read-out pKi is expressed as -log10 of concentration in moles per litre.

See these solved cases before continuing.
1) c1ccc2c(c1)C1CC(c3ccoc3)(c3ccoc3)C2c2cccc[n+]21 (single isomer, unassigned; (+)) [Example 40(b), hydrate]    8.78
2) [O-][Cl+3]([O-])([O-])[O-].c1ccc2c(c1)C1CC(c3ccoc3)(c3ccn[nH]3)C2c2cccc[n+]21 (single isomer, unassigned) [185(a)]    8.34
3) c1ccc2c(c1)CC1C3c4ccccc4C(c4cccc[n+]43)C21c1ccoc1 (stereo not shown) [6(d)]    8.92
4) c1ccc2c(c1)C1C3CCc4occc4C3(c3ccoc3)C2c2cccc[n+]21 (single isomer, unassigned) [69(c)]    9.05
5) CC1C2c3ccccc3C(c3cccc[n+]32)C1(c1ccoc1)c1ccoc1 (single isomer, unassigned) [181(c)]    8.20

Record CCOC1(c2ccoc2)CC2c3ccccc3C1c1cccc[n+]12 (stereo not shown) [11(d)] . Reported pKi: 7.59

# pKi (compound: Oc1ccc2[n+](c1)C1CC(c3ccoc3)(c3ccoc3)C2c2ccccc21 (stereo not shown) ) is 5.82
